assaySystem: T1, human SIRPγ (human, UniProt Q9P1W8 29-387)
T1 construct: on transfected CHO-K1 cells; also called hSIRPγ
T1 sequence (Q9P1W8 29-387 limits assumed): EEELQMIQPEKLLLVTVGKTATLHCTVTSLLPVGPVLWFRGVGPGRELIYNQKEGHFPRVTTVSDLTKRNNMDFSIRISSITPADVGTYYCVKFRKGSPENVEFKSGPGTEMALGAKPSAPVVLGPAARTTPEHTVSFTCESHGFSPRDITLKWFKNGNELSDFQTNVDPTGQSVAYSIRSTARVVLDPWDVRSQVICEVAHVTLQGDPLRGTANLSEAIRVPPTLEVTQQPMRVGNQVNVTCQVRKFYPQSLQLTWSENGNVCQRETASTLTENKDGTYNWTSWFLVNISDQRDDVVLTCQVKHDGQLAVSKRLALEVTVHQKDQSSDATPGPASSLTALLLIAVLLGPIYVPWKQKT
procedureText: CELISA, CHO-K1 transfectants; extrapolated
measure: EC50 (nM)
Write it as a number; the unit nM goes unstated.

May I ask what EC50 has been recorded for hSIRPα.50A.H3L1 (antibody, human IgG4 S228P, kappa, V domains shown, human IgG4 S228P, kappa; also called hSIRPα.50H3L1) VH: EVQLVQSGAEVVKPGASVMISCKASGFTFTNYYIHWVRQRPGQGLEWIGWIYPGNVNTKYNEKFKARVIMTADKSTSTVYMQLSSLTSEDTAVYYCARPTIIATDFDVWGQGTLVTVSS VL: DIVLTQSPSFLSASVGDRVTITCKASQGVGTAVGWYQQKPGKAPKLLIYWASTRHTGVPDRFSGSGSGTEFTLTISSLQPEDFAAYYCQQYSTYPFTFGGGTKLEIKR ?
1.42

Then hSIRPα.50A.H1L3 (antibody, human IgG4 S228P, kappa, V domains shown, human IgG4 S228P, kappa; also called hSIRPα.50H1L3) VH: EVQLQQSGAEVVKPGASVKVSCKASGFTFTNYYIHWVRQAPGQGLEWIGWIYPGNVNTKYNEKFKARVTITADKSTSTAYMDLSSLRSEDTAVYYCARPTIIATDFDVWGQGTTVTVSS VL: ELVMTQSPSSLSASVGDRVTITCKASQGVGTAVGWYQQKPGKAPKLLIYWASTRHTGVPDRFSGSGSGTDFTLAISSLQPEDIADYYCQQYSTYPFTFGGGTKVEIKR ?
2.58

Entry hSIRPα.50A.H1L1 (antibody, human IgG4 S228P, kappa, V domains shown, human IgG4 S228P, kappa; also called hSIRPα.50H1L1) VH: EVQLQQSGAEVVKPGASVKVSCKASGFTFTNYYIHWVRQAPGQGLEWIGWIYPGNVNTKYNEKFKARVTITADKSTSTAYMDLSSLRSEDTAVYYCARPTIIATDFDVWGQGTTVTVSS VL: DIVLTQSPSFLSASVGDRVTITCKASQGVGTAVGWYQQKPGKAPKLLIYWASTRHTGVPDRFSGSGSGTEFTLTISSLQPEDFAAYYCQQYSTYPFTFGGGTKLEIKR please
1.49

Source of measurements: patent US20180312587A1
